target: human GLP-1 receptor (human, UniProt P43220 24-463); test: cell-based or functional assay
Non-standard residues stand in square brackets, D forms with d. No end group written: not given here. Aib = CC(C)(N)C(=O)O
ENDPOINT: EC50 CreLuc hGLP1R 0.5% hP (nM)
Give just the number in nM; leave the unit off.

BINDER | EC50 CreLuc hGLP1R 0.5% hP, nM
YXEGTFTSDYSIXLEKQAQXAFVQWLIKGGPSSGASLRHYYNWLTRQRY (Aib at 2, 13, 20; K28 side chain: C18DA-gGlu-gGlu-gGlu-gGlu-gGlu-OEG-OEG; C-terminal NH2) [Compound 167] | 0.04

-- ask Recorded EC50 CreLuc hGLP1R 0.5% hP of Y[Aib]EGTFTSDLSI[Aib]LEKQAQ[Aib]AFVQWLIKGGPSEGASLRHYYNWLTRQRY-NH2 (not fully specified (residue 28)) [Compound 113] , please.
-- reply 0.19

-- ask Please look up its EC50 CreLuc hGLP1R 0.5% hP: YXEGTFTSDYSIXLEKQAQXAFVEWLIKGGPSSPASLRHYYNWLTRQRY (Aib at 2, 13, 20; K28 side chain: C18DA-gGlu-gGlu-gGlu-gGlu-gGlu-OEG-OEG; C-terminal NH2) [Compound 140]
-- reply 0.12
